# measurementTarget: murine CCR2 (Mus musculus, UniProt P51683)
# Construct: host or cells: U2OS β-arrestin cell line
# Sequence (P51683 whole entry): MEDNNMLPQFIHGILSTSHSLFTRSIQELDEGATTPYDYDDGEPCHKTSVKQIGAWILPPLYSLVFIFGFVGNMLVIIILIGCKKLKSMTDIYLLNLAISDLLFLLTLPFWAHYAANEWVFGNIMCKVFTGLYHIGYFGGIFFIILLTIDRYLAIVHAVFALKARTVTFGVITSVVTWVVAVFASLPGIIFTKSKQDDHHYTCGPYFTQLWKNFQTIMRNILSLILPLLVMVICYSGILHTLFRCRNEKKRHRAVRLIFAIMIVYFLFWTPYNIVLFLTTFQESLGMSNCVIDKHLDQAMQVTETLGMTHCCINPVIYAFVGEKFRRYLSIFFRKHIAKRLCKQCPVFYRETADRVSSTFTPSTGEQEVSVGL
# assay: Functional β-arrestin recruiting test with human MCP-1 (B-2a)
# Assay type: cell-based
# appliedConditions: U2OS β-arrestin cell line transfected with murine CCR2; agonist human MCP-1 at EC50 (about 3 nM)
pIC50: −log10 of the molar value.
Entries annotated with measured pIC50
measuredAttribute: pIC50

> print(dat)
                                   compound                         measurementtarget  value
1  NC(=O)Cc1nc(C(F)(F)F)c(Cc2ccc(Cl)c(F)c2)c(=O)[nH]1 [Example 40]  murine CCR2 (Mus musculus, UniProt P51683)   6.01
2  Nc1nc(C(F)(F)F)c(Cc2ccc(Cl)c(Cl)c2)c(=O)[nH]1 [Example 1]  murine CCR2 (Mus musculus, UniProt P51683)   6.70
3  O=c1[nH]c(C2CC2)nc(C(F)(F)F)c1Cc1ccc(Cl)c(Cl)c1 [Example 30]  murine CCR2 (Mus musculus, UniProt P51683)   6.26
4  NC(=O)Cc1nc(C(F)(F)F)c(Cc2ccc(Cl)c(Cl)c2)c(=O)[nH]1 [Example 50]  murine CCR2 (Mus musculus, UniProt P51683)   6.34
5  CCc1nc(C(F)(F)F)c(Cc2ccc(Cl)c(Cl)c2)c(=O)[nH]1 [Example 31]  murine CCR2 (Mus musculus, UniProt P51683)   6.66
6  Nc1nc(C(F)(F)F)c(Oc2cccc(Cl)c2)c(=O)[nH]1 [Example 9]  murine CCR2 (Mus musculus, UniProt P51683)   6.35
7  O=c1[nH]c(C2CC2)nc(C(F)(F)F)c1Cc1ccc(Cl)c(F)c1 [Example 23]  murine CCR2 (Mus musculus, UniProt P51683)   5.92
8  O=c1[nH]c(CO)nc(C(F)(F)F)c1Oc1ccc(Cl)c(F)c1 [Example 55]  murine CCR2 (Mus musculus, UniProt P51683)   6.92
9  NC(=O)Cc1nc(C(F)(F)F)c(Oc2ccc(Cl)c(C(F)(F)F)c2)c(=O)[nH]1 [Example 45]  murine CCR2 (Mus musculus, UniProt P51683)   6.89

###

# measurementTarget: murine CCR2 (Mus musculus, UniProt P51683)
# Construct: host or cells: U2OS β-arrestin cell line
# assay: Functional β-arrestin recruiting test with human MCP-1 (B-2a)
# Format: cell-based
# appliedConditions: U2OS β-arrestin cell line transfected with murine CCR2; agonist human MCP-1 at EC50 (about 3 nM)
pIC50: −log10 of the molar value.
measuredAttribute: pIC50

> print(dat)
                                    compound  value
 1  O=c1[nH]c(CO)nc(C(F)(F)F)c1Cc1ccc(Cl)c(Cl)c1 [Example 51]   6.64
 2  O=c1[nH]c(C2CC2)nc(C(F)(F)F)c1Oc1ccc(Cl)c(Cl)c1 [Example 25]   6.77
 3  NC(=O)Cc1nc(C(F)(F)F)c(Oc2ccc(F)c(C(F)(F)F)c2)c(=O)[nH]1 [Example 49]   6.42
 4  O=c1[nH]c(CCO)nc(C(F)(F)F)c1Oc1ccc(Cl)c(Cl)c1 [Example 68]   6.43
 5  Nc1nc(C(F)(F)F)c(Oc2ccc(F)c(Cl)c2)c(=O)[nH]1 [Example 4]   6.66
 6  Nc1nc(C(F)(F)F)c(Cc2ccc(Cl)c(C(F)(F)F)c2)c(=O)[nH]1 [Example 8]   6.80
 7  O=c1[nH]c(C2CC2)nc(C(F)(F)F)c1Cc1cccc(Cl)c1 [Example 21]   6.23
 8  CCc1nc(C(F)(F)F)c(Oc2ccc(Cl)c(Cl)c2)c(=O)[nH]1 [Example 33]   7.13
 9  CCCCc1nc(C(F)(F)F)c(Cc2ccc(Cl)c(Cl)c2)c(=O)[nH]1 [Example 22]   6.13
10  Nc1nc(C(F)(F)F)c(Oc2ccc(Cl)c(Cl)c2)c(=O)[nH]1 [Example 3]   7.31
11  Nc1nc(C(F)(F)F)c(Oc2ccc(Cl)c(C(F)(F)F)c2)c(=O)[nH]1 [Example 2]   7.64
12  O=c1[nH]c(C2CC2)nc(C(F)(F)F)c1Cc1ccc(F)c(Cl)c1 [Example 34]   6.28
13  Nc1nc(C(F)(F)F)c(Oc2cncc(Cl)c2)c(=O)[nH]1 [Example 12]   6.00
14  NC(=O)Cc1nc(C(F)(F)F)c(Oc2cccc(Cl)c2)c(=O)[nH]1 [Example 38]   5.48
15  CCc1nc(C(F)(F)F)c(Cc2ccc(C(F)(F)F)c(Cl)c2)c(=O)[nH]1 [Example 19]   6.01
16  Nc1nc(C(F)(F)F)c(Cc2ccc(F)c(Cl)c2)c(=O)[nH]1 [Example 7]   6.52
17  Cc1ccc(Cc2c(C(F)(F)F)nc(N)[nH]c2=O)cc1Cl [Example 11]   6.25
18  Nc1nc(C(F)(F)F)c(Sc2ccc(Cl)c(Cl)c2)c(=O)[nH]1 [Example 15]   6.89
19  O=c1[nH]c(CO)nc(C(F)(F)F)c1Oc1ccc(F)c(Cl)c1 [Example 52]   6.85
20  NC(=O)Cc1nc(C(F)(F)F)c(Cc2cccc(Cl)c2)c(=O)[nH]1 [Example 43]   6.06
21  Nc1nc(C(F)(F)F)c(Oc2ccc(F)c(F)c2)c(=O)[nH]1 [Example 10]   5.89
22  Cc1ccc(Cc2c(C(F)(F)F)nc(C3CC3)[nH]c2=O)cc1Cl [Example 29]   6.10
23  Nc1nc(C(F)(F)F)c(Cc2ccc(C(F)(F)F)c(Cl)c2)c(=O)[nH]1 [Example 14]   6.09
24  Cc1nc(C(F)(F)F)c(Cc2ccc(Cl)c(Cl)c2)c(=O)[nH]1 [Example 18]   6.43
25  CCc1nc(C(F)(F)F)c(Cc2ccc(Cl)c(F)c2)c(=O)[nH]1 [Example 32]   6.27
26  NC(=O)Cc1nc(C(F)(F)F)c(Oc2ccc(Cl)c(F)c2)c(=O)[nH]1 [Example 39]   5.74
27  NC(=O)Cc1nc(C(F)(F)F)c(Oc2ccc(F)c(Cl)c2)c(=O)[nH]1 [Example 36]   5.80
28  CCc1nc(C(F)(F)F)c(Cc2cccc(C(F)(F)F)c2)c(=O)[nH]1 [Example 20]   5.92
29  NC(=O)Nc1nc(C(F)(F)F)c(Cc2ccc(Cl)c(Cl)c2)c(=O)[nH]1 [Example 56]   6.48
30  NC(=O)Cc1nc(C(F)(F)F)c(Cc2ccc(Cl)c(C(F)(F)F)c2)c(=O)[nH]1 [Example 48]   6.52
31  Nc1nc(C(F)(F)F)c(Oc2ccc(F)c(C(F)(F)F)c2)c(=O)[nH]1 [Example 6]   6.82

Numbers sourced from patent US20160221965A1.
